Data origin: ChEMBL document CHEMBL1772956

Measured pKi on Kappa-type opioid receptor (Homo sapiens, UniProt P41145) follows.
Sequence (P41145 whole entry): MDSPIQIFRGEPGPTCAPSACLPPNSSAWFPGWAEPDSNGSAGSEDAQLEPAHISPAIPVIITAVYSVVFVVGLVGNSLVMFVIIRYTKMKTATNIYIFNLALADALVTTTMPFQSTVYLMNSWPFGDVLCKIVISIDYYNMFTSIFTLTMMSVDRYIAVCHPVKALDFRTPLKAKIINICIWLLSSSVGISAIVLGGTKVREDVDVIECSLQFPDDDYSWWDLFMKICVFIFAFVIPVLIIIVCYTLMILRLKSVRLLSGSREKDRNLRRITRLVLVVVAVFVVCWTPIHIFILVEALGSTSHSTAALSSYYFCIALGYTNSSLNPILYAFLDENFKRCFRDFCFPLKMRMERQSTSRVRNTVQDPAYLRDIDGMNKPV
A value of pKi is the negative decimal logarithm of a concentration given in moles per litre.

Some entries whose results are on file:
O=C(CCCCCCCCC(=O)Nc1nc2cc3c(cc2s1)C[C@@H]1[C@@H]2CCCC[C@]32CCN1CC1CC1)Nc1nc2cc3c(cc2s1)C[C@@H]1[C@@H]2CCCC[C@]32CCN1CC1CC1 | 9.43
CO[C@@]12CCCC[C@@]13CCN(CC1CCC1)[C@@H]2Cc1ccc(O)cc13 | 9.70
c1c2c(cc3sc(NCCCCCCCCCCNc4nc5cc6c(cc5s4)C[C@@H]4[C@@H]5CCCC[C@]65CCN4CC4CC4)nc13)C[C@@H]1[C@@H]3CCCC[C@]23CCN1CC1CC1 | 9.57

[in] GET /values?readout=pKi&system=Kappa-type opioid receptor (Homo sapiens, UniProt P41145)&item= O=C(CCCCCCCCC(=O)Oc1ccc2c(c1)[C@@]13CCCC[C@@]1(O)[C@@H](C2)N(CC1CCC1)CC3)Oc1ccc2c(c1)[C@@]13CCCC[C@H]1[C@@H](C2)N(CC1CCC1)CC3
[out] 10.14

[in] // lookup pKi | system=Kappa-type opioid receptor (Homo sapiens, UniProt P41145) | key= CO[C@@]12CCCC[C@@]13CCN(CC1CCC1)[C@@H]2Cc1ccc(OC(=O)CCCCCCCCC(=O)Oc2ccc4c(c2)[C@@]25CCCC[C@@]2(OC)[C@@H](C4)N(CC2CCC2)CC5)cc13
[out] 9.43

###

- SYSTEM_NAME: Mu-type opioid receptor (Homo sapiens, UniProt P35372)
- Sequence (P35372 whole entry): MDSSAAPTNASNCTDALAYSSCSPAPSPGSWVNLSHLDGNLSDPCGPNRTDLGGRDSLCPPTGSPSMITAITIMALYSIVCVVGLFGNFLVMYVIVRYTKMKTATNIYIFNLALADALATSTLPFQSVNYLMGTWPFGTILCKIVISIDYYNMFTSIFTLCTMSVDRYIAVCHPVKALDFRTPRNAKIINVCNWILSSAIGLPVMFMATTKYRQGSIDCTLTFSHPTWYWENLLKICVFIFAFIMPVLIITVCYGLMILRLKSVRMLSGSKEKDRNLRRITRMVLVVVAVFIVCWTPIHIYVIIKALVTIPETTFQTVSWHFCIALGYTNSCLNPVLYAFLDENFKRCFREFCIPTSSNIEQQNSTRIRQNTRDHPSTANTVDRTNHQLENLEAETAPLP
- TEST_METHOD_NOTES: Antagonist activity at human mu-opioid receptor expressed in CHO cells assessed as inhibition of DAMGO-induced [35S]GTPgammaS binding after 60 mins by scintillation counting relative to control
- Type: functional, cell-based
READOUT_LABEL: Imax (%)
# output: bare number, implied unit %

Example entries begin here.
CO[C@@]12CCCC[C@@]13CCN(CC1CCC1)[C@@H]2Cc1ccc(O)cc13 | 50
C=CCN1CC[C@]23c4c5ccc(OC(=O)CCCCCCCCC(=O)Oc6ccc7c(c6)[C@@]68CCCC[C@@]6(OC)[C@@H](C7)N(CC6CCC6)CC8)c4O[C@H]2C(=O)CC[C@@]3(O)[C@H]1C5 | 45
c1c2c(cc3sc(NCCCCCCCCCCNc4nc5cc6c(cc5s4)C[C@@H]4[C@@H]5CCCC[C@]65CCN4CC4CC4)nc13)C[C@@H]1[C@@H]3CCCC[C@]23CCN1CC1CC1 | 71
O=C(CCCCCCCCC(=O)Oc1ccc2c(c1)[C@@]13CCCC[C@@]1(O)[C@@H](C2)N(CC1CCC1)CC3)Oc1ccc2c(c1)[C@@]13CCCC[C@H]1[C@@H](C2)N(CC1CCC1)CC3 | 50
C=CCN1CC[C@]23c4c5ccc(OC(=O)CCCCCCCCC(=O)Oc6ccc7c(c6)[C@@]68CCCC[C@@]6(O)[C@@H](C7)N(CC6CCC6)CC8)c4O[C@H]2C(=O)CC[C@@]3(O)[C@H]1C5 | 73
CO[C@@]12CCCC[C@@]13CCN(CC1CCC1)[C@@H]2Cc1ccc(OC(=O)CCCCCCCCC(=O)Oc2ccc4c(c2)[C@@]25CCCC[C@@]2(OC)[C@@H](C4)N(CC2CCC2)CC5)cc13 | 44

Now, please, on to the next compound.
[in] Entry under review: CO[C@@]12CCCC[C@@]13CCN(CC1CCC1)[C@@H]2Cc1ccc(OC(=O)CCCCCCCCC(=O)OCc2ccccc2)cc13 . Reported Imax?
[out] 28

###

- SYSTEM_NAME: Kappa-type opioid receptor (Homo sapiens)
- TEST_METHOD_NOTES: Antagonist activity at human kappa-opioid receptor expressed in CHO cells assessed as inhibition of U69593-induced [35S]GTPgammaS binding after 60 mins by scintillation counting
- Type: functional, cell-based
- MEASUREMENT_CONTEXT: read-out: IC50
READOUT_LABEL: log10(IC50) (log10 of the value in nM)
Scale: log10; quantity: IC50; unit before log: nM

O=C(CCCCCCCCC(=O)Oc1ccc2c(c1)[C@@]13CCCC[C@@]1(O)[C@@H](C2)N(CC1CCC1)CC3)Oc1ccc2c(c1)[C@@]13CCCC[C@H]1[C@@H](C2)N(CC1CCC1)CC3 | 0.57
CO[C@@]12CCCC[C@@]13CCN(CC1CCC1)[C@@H]2Cc1ccc(OC(=O)CCCCCCCCC(=O)Oc2ccc4c(c2)[C@@]25CCCC[C@@]2(OC)[C@@H](C4)N(CC2CCC2)CC5)cc13 | 1.23
C=CCN1CC[C@]23c4c5ccc(OC(=O)CCCCCCCCC(=O)Oc6ccc7c(c6)[C@@]68CCCC[C@@]6(O)[C@@H](C7)N(CC6CCC6)CC8)c4O[C@H]2C(=O)CC[C@@]3(O)[C@H]1C5 | 1.69
C=CCN1CC[C@]23c4c5ccc(OC(=O)CCCCCCCCC(=O)Oc6ccc7c(c6)[C@@]68CCCC[C@@]6(OC)[C@@H](C7)N(CC6CCC6)CC8)c4O[C@H]2C(=O)CC[C@@]3(O)[C@H]1C5 | 0.89
CO[C@@]12CCCC[C@@]13CCN(CC1CCC1)[C@@H]2Cc1ccc(O)cc13 | 1.34

# ---- query molecule ----
[in] What log10(IC50) value was documented for this molecule, CO[C@@]12CCCC[C@@]13CCN(CC1CCC1)[C@@H]2Cc1ccc(OC(=O)CCCCCCCCC(=O)OCc2ccccc2)cc13 ?
[out] 0.81

###

Overview of reported Emax across a group of compounds:
- SYSTEM_NAME: UniProt P35372
- TEST_METHOD_NOTES: Agonist activity at human mu-opioid receptor expressed in CHO cells assessed as stimulation of [35S]GTPgammaS binding after 60 mins by scintillation counting relative to control
- Type: functional, cell-based
Form entry: value (%) — number only.

// solved cases for Emax follow
CO[C@@]12CCCC[C@@]13CCN(CC1CCC1)[C@@H]2Cc1ccc(OC(=O)CCCCCCCCC(=O)OCc2ccccc2)cc13 | 54
C=CCN1CC[C@]23c4c5ccc(OC(=O)CCCCCCCCC(=O)Oc6ccc7c(c6)[C@@]68CCCC[C@@]6(OC)[C@@H](C7)N(CC6CCC6)CC8)c4O[C@H]2C(=O)CC[C@@]3(O)[C@H]1C5 | 62
c1c2c(cc3sc(NCCCCCCCCCCNc4nc5cc6c(cc5s4)C[C@@H]4[C@@H]5CCCC[C@]65CCN4CC4CC4)nc13)C[C@@H]1[C@@H]3CCCC[C@]23CCN1CC1CC1 | 38
O=C(CCCCCCCCC(=O)Oc1ccc2c(c1)[C@@]13CCCC[C@@]1(O)[C@@H](C2)N(CC1CCC1)CC3)Oc1ccc2c(c1)[C@@]13CCCC[C@H]1[C@@H](C2)N(CC1CCC1)CC3 | 46
C=CCN1CC[C@]23c4c5ccc(OC(=O)CCCCCCCCC(=O)Oc6ccc7c(c6)[C@@]68CCCC[C@@]6(O)[C@@H](C7)N(CC6CCC6)CC8)c4O[C@H]2C(=O)CC[C@@]3(O)[C@H]1C5 | 19
CO[C@@]12CCCC[C@@]13CCN(CC1CCC1)[C@@H]2Cc1ccc(OC(=O)CCCCCCCCC(=O)Oc2ccc4c(c2)[C@@]25CCCC[C@@]2(OC)[C@@H](C4)N(CC2CCC2)CC5)cc13 | 42
CO[C@@]12CCCC[C@@]13CCN(CC1CCC1)[C@@H]2Cc1ccc(O)cc13 | 50

[in] # get_value(readout= Emax, system= UniProt P35372) for O=C(CCCCCCCCC(=O)Nc1nc2cc3c(cc2s1)C[C@@H]1[C@@H]2CCCC[C@]32CCN1CC1CC1)Nc1nc2cc3c(cc2s1)C[C@@H]1[C@@H]2CCCC[C@]32CCN1CC1CC1
[out] 25

###

Reported values: Ki for Kappa-type opioid receptor (Homo sapiens, UniProt P41145), one per item.
Quick note: number first, unit second.

Below, each entry is followed by its recorded Ki result.
C=CCN1CC[C@]23c4c5ccc(OC(=O)CCCCCCCCC(=O)Oc6ccc7c(c6)[C@@]68CCCC[C@@]6(OC)[C@@H](C7)N(CC6CCC6)CC8)c4O[C@H]2C(=O)CC[C@@]3(O)[C@H]1C5 | 140 pM
CO[C@@]12CCCC[C@@]13CCN(CC1CCC1)[C@@H]2Cc1ccc(OC(=O)CCCCCCCCC(=O)OCc2ccccc2)cc13 | 230 pM

Now let's try a different one.
[in] Could you share what Ki was measured for C=CCN1CC[C@]23c4c5ccc(OC(=O)CCCCCCCCC(=O)Oc6ccc7c(c6)[C@@]68CCCC[C@@]6(O)[C@@H](C7)N(CC6CCC6)CC8)c4O[C@H]2C(=O)CC[C@@]3(O)[C@H]1C5 , tested on Kappa-type opioid receptor (Homo sapiens, UniProt P41145)?
[out] 280 pM
